assay.comment: collision cross section in nitrogen (drift tube, single-field); higher = larger gas-phase ion size;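 also: chemical standards at 10 µM analysed by drift tube IMS-QTOF MS in about 3.95 torr nitrogen, mean of duplicate injections differing ≤1%, mass error below 10 ppm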
conditions: ion type: [M+H]; ion source: APCI; ion mode: Positive
Where a name gives a salt, the structure may show the parent alone.
endpoint.name: collision cross section in nitrogen (Å²)

Example results:
- molecule: "CN1CCC[C@H]1c1cccnc1 [Nicotine sulfate (2:1)]"
  collision cross section in nitrogen / Å²: 137
- molecule: "COCC(=O)N(c1c(C)cccc1C)C(C)C(=O)OC (centres undefined) [Metalaxyl]"
  collision cross section in nitrogen / Å²: 160.5
- molecule: "O=C1CC2(CCCC2)CC(=O)N1CCCCN1CCN(c2ncccn2)CC1 [Buspirone]"
  collision cross section in nitrogen / Å²: 199.2
- molecule: "Nc1ccc(-c2ccc(N)cc2)cc1 [4,4′-Diamino-1,1′-biphenyl]"
  collision cross section in nitrogen / Å²: 156.9
- molecule: "O=c1cc(-c2ccccc2)oc2c1ccc1ccccc12 [alpha-Naphthoflavone]"
  collision cross section in nitrogen / Å²: 161.7
- molecule: "OC(Cn1cncn1)(Cn1cncn1)c1ccc(F)cc1F [Fluconazole]"
  collision cross section in nitrogen / Å²: 167.5
- molecule: "CCCOc1sc(C(=O)N2CCC(c3cc(CN)ccc3F)CC2)c(C)c1Br [AVE8923]"
  collision cross section in nitrogen / Å²: 197.2
- molecule: "CC(C)c1ccc2c(c1)CC[C@H]1[C@](C)(CN)CCC[C@]21C [Dehydroabietylamine acetate]"
  collision cross section in nitrogen / Å²: 188.9

a = CCOC(=O)NNc1nncc2ccccc12 [Todralazine hydrochloride]
b = COCCOc1cc2cc(C(=O)NC3CCN(C(C)C)CC3)n(CC(=O)Nc3ccc(Cl)cn3)c2cn1
# input When a and b are compared, which has the higher number for collision cross section in nitrogen? Lab note: record the label of whichever item you select.
# output b

* * *

assay.comment: collision cross section in nitrogen (drift tube, single-field); higher = larger gas-phase ion size
conditions: ion type: [M-H]; ion source: ESI; ion mode: Negative
endpoint.name: collision cross section in nitrogen (Å²)

Example results:
- compound: "N#Cc1c[nH]cc1-c1cccc2c1OC(F)(F)O2 [Fludioxonil]"
  unit.text: "Å²"
  collision cross section in nitrogen: 146.3
- compound: "CC(C)c1ccccc1O [2-Isopropylphenol]"
  unit.text: "Å²"
  collision cross section in nitrogen: 129.3
- compound: "c1nc[nH]n1 [1H-1,2,4-Triazole]"
  unit.text: "Å²"
  collision cross section in nitrogen: 107.7

P = O=[N+]([O-])c1ccc(O)cc1 [Sodium 4-nitrophenolate]
Q = Cc1ccc2nc(-c3ccc(N)cc3)sc2c1S(=O)(=O)O [2-(4-Aminophenyl)-6-methylbenzothiazole sulfonic acid]
# input When P and Q are compared, which has the higher number for collision cross section in nitrogen? Lab note: record the label of whichever item you select.
# output Q
(Q: 174.2 Å², P: 120.5 Å²)

* * *

assay.comment: collision cross section in nitrogen (drift tube, single-field); higher = larger gas-phase ion size
conditions: ion type: [M+H]; ion source: APCI; ion mode: Positive
Where a name gives a salt, the structure may show the parent alone.
endpoint.name: collision cross section in nitrogen (Å²)

Example results:
- compound: "O=C(N[C@@H](c1ccccc1)[C@@H]1CCCCN1)c1cccc(C(F)(F)F)c1Cl"
  endpoint.name: "collision cross section in nitrogen"
  recorded.result: 190.3
- compound: "COc1ncc(F)c2nc(S(=O)(=O)Nc3c(F)cccc3F)nn12 [Florasulam]"
  endpoint.name: "collision cross section in nitrogen"
  recorded.result: 172.3
- compound: "Nc1nc2ccccc2[nH]1 [2-Aminobenzimidazole]"
  endpoint.name: "collision cross section in nitrogen"
  recorded.result: 126.2
- compound: "CC(C)C[C@H]1C(=O)N2CCC[C@H]2[C@]2(O)O[C@](NC(=O)[C@@H]3C=C4c5cccc6[nH]c(Br)c(c56)C[C@H]4N(C)C3)(C(C)C)C(=O)N12 [Bromocriptine mesylate]"
  endpoint.name: "collision cross section in nitrogen"
  recorded.result: 242.9
- compound: "Cc1cccc2nccnc12 [5-Methylquinoxaline]"
  endpoint.name: "collision cross section in nitrogen"
  recorded.result: 126.5
- compound: "CC(=O)N1CCN(c2ccc(OC[C@H]3CO[C@](Cn4ccnc4)(c4ccc(Cl)cc4Cl)O3)cc2)CC1 [Ketoconazole]"
  endpoint.name: "collision cross section in nitrogen"
  recorded.result: 217.3
- compound: "CN(C)c1ccncc1 [N,N-dimethylpyridin-4-amine]"
  endpoint.name: "collision cross section in nitrogen"
  recorded.result: 120.6
- compound: "Nc1ccc(N=Nc2ccccc2)c(N)n1 [Phenazopyridine hydrochloride]"
  endpoint.name: "collision cross section in nitrogen"
  recorded.result: 150
- compound: "COc1ccc(NC(=O)CC(C)=O)cc1 [N-(4-Methoxyphenyl)-3-oxobutanamide]"
  endpoint.name: "collision cross section in nitrogen"
  recorded.result: 146.5
- compound: "CCC(C)N(C)C(=O)c1cc2ccccc2c(-c2ccccc2Cl)n1 (stereo unspecified)"
  endpoint.name: "collision cross section in nitrogen"
  recorded.result: 186.6

1 = COc1ccccc1Oc1c(NS(=O)(=O)c2ccc(C(C)(C)C)cc2)nc(-c2ncccn2)nc1OCCO [Bosentan hydrate]
2 = c1cnc2c(c1)ccc1cccnc12 [1,10-Phenanthroline hydrochloride hydrate]
# input Consider entries 1 and 2 . Which has the numerically lower collision cross section in nitrogen? Lab note: record the label of whichever item you select.
# output 2

I = CC[C@H](NC(=O)c1cc(F)ccc1NS(=O)(=O)c1cccc2cccnc12)c1ccccc1 [AVE3295]
II = CC(=O)c1sc(C)nc1C [1-(2,4-Dimethyl-1,3-thiazol-5-yl)ethanone]
# input When I and II are compared, which has the higher number for collision cross section in nitrogen? Lab note: record the label of whichever item you select.
# output I
(I: 198 Å², II: 129.2 Å²)

* * *

assay.comment: collision cross section in nitrogen (drift tube, single-field); higher = larger gas-phase ion size
conditions: ion type: [M+H]; ion source: ESI; ion mode: Positive
endpoint.name: collision cross section in nitrogen (Å²)

- smiles: "CCCCSP(=O)(SCCCC)SCCCC"
  unit.text: "Å²"
  recorded.result: 177.2
- smiles: "c1ccc(CNCc2ccccc2)cc1"
  unit.text: "Å²"
  recorded.result: 149.6
- smiles: "O=C1OC(c2ccc(O)cc2)(c2ccc(O)cc2)c2ccccc21"
  unit.text: "Å²"
  recorded.result: 173.9

* * *

assay.comment: collision cross section in nitrogen (drift tube, single-field); higher = larger gas-phase ion size
conditions: ion type: [M+H]; ion source: ESI; ion mode: Positive
Where a name gives a salt, the structure may show the parent alone.
endpoint.name: collision cross section in nitrogen (Å²)

Example results:
- compound: "CC(C)(C)c1cc(CCC(=O)NCCCCCCNC(=O)CCc2cc(C(C)(C)C)c(O)c(C(C)(C)C)c2)cc(C(C)(C)C)c1O [Antioxidant 1098]"
  endpoint.name: "collision cross section in nitrogen"
  recorded.result: 263.3
- compound: "CC1Cc2ccccc2N1NC(=O)c1ccc(Cl)c(S(N)(=O)=O)c1 (configuration not stated) [Indapamide]"
  endpoint.name: "collision cross section in nitrogen"
  recorded.result: 187.6
- compound: "CC(NC(C)(C)C)C(=O)c1cccc(Cl)c1 (configuration not stated) [Bupropion hydrochloride]"
  endpoint.name: "collision cross section in nitrogen"
  recorded.result: 158.6
- compound: "CCOC(=O)c1cn2nc(OP(=S)(OCC)OCC)cc2nc1C"
  endpoint.name: "collision cross section in nitrogen"
  recorded.result: 191.7
- compound: "CC1=C(CC(=O)O)c2cc(F)ccc2/C1=C\\c1ccc(S(C)=O)cc1 (configuration not stated)"
  endpoint.name: "collision cross section in nitrogen"
  recorded.result: 196.2

1 = Cc1ccccc1NC(=N)NC(=N)N [1-(o-Tolyl)biguanide]
2 = CCOc1nc2cccc(C(=O)OC(C)OC(=O)OC3CCCCC3)c2n1Cc1ccc(-c2ccccc2-c2nnn[nH]2)cc1 (configuration not stated)
# input Consider entries 1 and 2 . Which has the numerically lower collision cross section in nitrogen? Lab note: record the label of whichever item you select.
# output 1

* * *

assay.comment: collision cross section in nitrogen (drift tube, single-field); higher = larger gas-phase ion size
conditions: ion type: [M+]; ion source: APCI; ion mode: Positive
endpoint.name: collision cross section in nitrogen (Å²)

P = Nc1ccc(-c2ccc(F)cc2)cc1
Q = CC(=O)C(=NNc1ccc(-c2ccc(NN=C(C(C)=O)C(=O)Nc3ccc(C)cc3C)c(Cl)c2)cc1Cl)C(=O)Nc1ccc(C)cc1C
# input Consider entries P and Q . Which has the numerically lower collision cross section in nitrogen? Lab note: record the label of whichever item you select.
# output P

* * *

assay.comment: collision cross section in nitrogen (drift tube, single-field); higher = larger gas-phase ion size
conditions: ion type: [M-H]; ion source: ESI; ion mode: Negative
endpoint.name: collision cross section in nitrogen (Å²)

- molecule: "CC(c1ccc(O)cc1)(c1ccc(O)cc1)c1ccc(O)cc1 [4,4',4''-Ethane-1,1,1-triyltriphenol]"
  endpoint.name: "collision cross section in nitrogen"
  unit.text: "Å²"
  recorded.result: 184.3
- molecule: "CCCCCCCCCCOC(C)=O [Decyl acetate]"
  endpoint.name: "collision cross section in nitrogen"
  unit.text: "Å²"
  recorded.result: 155
- molecule: "COc1ccc([N+](=O)[O-])cc1O [Sodium 2-methoxy-5-nitrophenolate]"
  endpoint.name: "collision cross section in nitrogen"
  unit.text: "Å²"
  recorded.result: 129.6
- molecule: "Cc1[nH]nc2c1N=C(c1ccccc1Cl)c1cc([N+](=O)[O-])ccc1N2"
  endpoint.name: "collision cross section in nitrogen"
  unit.text: "Å²"
  recorded.result: 181.1
- molecule: "CC1(C)[C@@H](O[C@H]2O[C@H](C(=O)O)[C@@H](O)[C@H](O)[C@H]2O[C@@H]2O[C@H](C(=O)O)[C@@H](O)[C@H](O)[C@H]2O)CC[C@]2(C)[C@H]3C(=O)C=C4[C@@H]5C[C@@](C)(C(=O)O)CC[C@]5(C)CC[C@@]4(C)[C@]3(C)CC[C@@H]12 [Glycyrrhizin]"
  endpoint.name: "collision cross section in nitrogen"
  unit.text: "Å²"
  recorded.result: 281.7
